# Subject Of Test: α7–5HT3 mutant chimeric channels (Homo sapiens, UniProt P36544, L141G)
# Sequence (P36544 23-224 L141G, one chain of several): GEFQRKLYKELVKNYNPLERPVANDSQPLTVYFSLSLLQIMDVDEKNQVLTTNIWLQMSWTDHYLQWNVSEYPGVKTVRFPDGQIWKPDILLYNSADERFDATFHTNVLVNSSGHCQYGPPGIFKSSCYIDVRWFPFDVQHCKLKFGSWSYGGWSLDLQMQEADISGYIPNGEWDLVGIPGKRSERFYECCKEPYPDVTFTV
# Assay Comment: cell-based

>  <Query Smiles>
COC(=O)[C@H]1[C@@H](OC(=O)c2ccccc2)C[C@@H]2CC[C@H]1N2C

>  <EC50 / µM>
2.35

$$$$

---

# Subject Of Test: coca-5HT3 (Homo sapiens, UniProt P36544, G175K/L141G/Y210F/Y217F)
# Sequence (P23979 242-489): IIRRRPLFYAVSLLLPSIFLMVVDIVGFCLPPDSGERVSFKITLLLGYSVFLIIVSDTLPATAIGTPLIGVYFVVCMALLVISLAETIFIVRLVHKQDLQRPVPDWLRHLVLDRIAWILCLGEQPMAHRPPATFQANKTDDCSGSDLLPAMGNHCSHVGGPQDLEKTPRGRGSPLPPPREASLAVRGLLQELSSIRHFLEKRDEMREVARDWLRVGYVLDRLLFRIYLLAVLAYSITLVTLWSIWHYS
# Sequence (P36544 23-224 L141G/G175K/Y210F/Y217F): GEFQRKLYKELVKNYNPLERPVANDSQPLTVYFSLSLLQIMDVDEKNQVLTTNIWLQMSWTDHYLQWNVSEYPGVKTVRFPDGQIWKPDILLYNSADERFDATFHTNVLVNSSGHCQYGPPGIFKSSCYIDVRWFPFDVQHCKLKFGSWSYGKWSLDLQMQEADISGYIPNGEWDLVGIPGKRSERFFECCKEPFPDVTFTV
# Assay Comment: [^3H]ASEM displacement, membranes of HEK293 cells expressing coca-5HT3
# Type: binding, human α7 nAChR LBD, mouse 5HT3 IPD
# Conditions Used: KiHi MEAN, Two sites - Fit Ki; MEAN of replicates; high-affinity site; concentrations in log(M)

>  <Query Smiles>
COC(=O)[C@H]1[C@@H](OC(=O)c2ccccc2)C[C@@H]2CC[C@H]1N2C

>  <Ki (M)>
1.43e-11

$$$$

---

# Subject Of Test: coca-5HT3 (α7(L141G,G175K,Y210F,Y217F)–5HT3) (Homo sapiens, UniProt P36544, G175K/L141G/Y210F/Y217F)
# Assay Comment: Membrane potential assay, coca-5HT3 in HEK293
# Conditions Used: coca-5HT3; conc 100 uM; ED Fig 3b
Label True when Max normalized Response >= 0.06; otherwise False.

>  <Compound>
C[N+]1(C)[C@@H]2C[C@@H](OC(=O)[C@H](CO)c3ccccc3)C[C@H]1[C@@H]1O[C@@H]12 [Methscopolamine]

>  <Class Label>
True

$$$$
>  <Compound>
CN1[C@@H]2CC[C@H]1C[C@@H](OC(=O)[C@H](CO)c1ccccc1)C2 [Hyoscyamine]

>  <Class Label>
False

$$$$
>  <Compound>
C[N+]1(C)[C@@H]2CC[C@H]1C[C@@H](OC(=O)C(CO)c1ccccc1)C2 (stereo partly drawn) [Methylatropine]

>  <Class Label>
True

$$$$
>  <Compound>
O=C(O[C@H]1C[C@H]2CC[C@@H](C1)[N+]21CCCC1)C(O)(c1ccccc1)c1ccccc1 [Trospium]

>  <Class Label>
False

$$$$
>  <Compound>
CC[N+]1(C)[C@@H]2CC(OC(=O)[C@H](CO)c3ccccc3)C[C@H]1[C@@H]1O[C@@H]12 (stereo partly drawn) [Oxitroprium]

>  <Class Label>
True

$$$$
>  <Compound>
CC(C)[N+]1(C)[C@@H]2CC[C@H]1C[C@@H](OC(=O)C(CO)c1ccccc1)C2 (stereo partly drawn) [Ipatropium]

>  <Class Label>
False

$$$$
>  <Compound>
CN1[C@@H]2CC[C@H]1C[C@@H](OC(c1ccccc1)c1ccccc1)C2 [Benztropine]

>  <Class Label>
True

$$$$
>  <Compound>
CCN(CC)CCOC(=O)c1ccc(N)cc1 [Procaine]

>  <Class Label>
True

$$$$

---

# Test system: α7–5HT3 mutant chimeric channels
# Assay Comment: cell-based
# Assay type: cell-based, human α7 nAChR LBD, mouse 5HT3 IPD
# Conditions Used: sheet 1e; AVG; read-out: EC50 at a75HT3 L141G, AVG
Measured Property: EC50 (µM)

>  <Compound>
COC(=O)[C@H]1[C@@H](OC(=O)c2ccccc2)C[C@@H]2CC[C@H]1N2C [cocaine]

>  <Unit Of Measurement>
µM

>  <Measured Result>
2.35

$$$$

---

# Subject Of Test: coca-GlyR (Homo sapiens, UniProt P23415+P36544, G175K/L141G/Y217F)
# Construct: expressed in transfected cells; host or cells: HEK293 (ATCC CRL-1573), pcDNA3.1
# Sequence (P36544+P23415 fused P36544:L141G/P36544:G175K/P36544:Y217F): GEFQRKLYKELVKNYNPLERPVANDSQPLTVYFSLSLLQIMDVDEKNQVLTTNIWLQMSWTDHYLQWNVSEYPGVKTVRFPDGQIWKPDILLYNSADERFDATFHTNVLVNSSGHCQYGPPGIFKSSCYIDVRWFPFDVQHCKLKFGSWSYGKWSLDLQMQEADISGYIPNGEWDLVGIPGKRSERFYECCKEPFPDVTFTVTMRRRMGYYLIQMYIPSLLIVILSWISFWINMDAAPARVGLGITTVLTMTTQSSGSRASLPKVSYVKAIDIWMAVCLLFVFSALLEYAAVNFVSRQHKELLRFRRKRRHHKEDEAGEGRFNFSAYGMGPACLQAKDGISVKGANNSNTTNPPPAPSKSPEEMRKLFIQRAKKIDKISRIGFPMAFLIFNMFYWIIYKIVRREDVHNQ
# Assay Comment: [^3H]ASEM displacement, membranes of HEK293 cells expressing coca-GlyR
# Type: binding
# Conditions Used: KiH, [^3H]ASEM competition, two-site fit
Measured Property: Ki (pM)

>  <Query Smiles>
COC(=O)[C@H]1[C@@H](OC(=O)c2ccccc2)C[C@@H]2CC[C@H]1N2C

>  <Subject Of Test>
coca-GlyR (Homo sapiens, UniProt P23415+P36544, G175K/L141G/Y217F)

>  <Measured Result>
14

$$$$

---

# Subject Of Test: α7–5HT3 mutant chimeric channels (Homo sapiens, UniProt P36544, S170F)
# Assay Comment: cell-based
pEC50: −log10 of the molar value.

>  <Compound>
COC(=O)[C@H]1[C@@H](OC(=O)c2ccccc2)C[C@@H]2CC[C@H]1N2C [cocaine]

>  <pEC50>
< 4.52

$$$$

---

# Subject Of Test: coca-5HT3 (Homo sapiens, UniProt P36544, G175K/L141G/Y210F/Y217F)
# Assay Comment: [^3H]ASEM displacement, membranes of HEK293 cells expressing coca-5HT3
# Format: binding, human α7 nAChR LBD, mouse 5HT3 IPD
# Conditions Used: read-out: low-affinity inhibition constant (KiL); displacement of [^3H]ASEM 2 nM, two-site fit

>  <Compound>
COC(=O)[C@H]1[C@@H](OC(=O)c2ccccc2)C[C@@H]2CC[C@H]1N2C [cocaine]

>  <Subject Of Test>
coca-5HT3 (Homo sapiens, UniProt P36544, G175K/L141G/Y210F/Y217F)

>  <Ki (µM)>
10

$$$$

---

# Subject Of Test: α7–GlyR mutant chimeric channels (Homo sapiens, UniProt P36544, L131K)
# Sequence (P36544 23-229 L131K): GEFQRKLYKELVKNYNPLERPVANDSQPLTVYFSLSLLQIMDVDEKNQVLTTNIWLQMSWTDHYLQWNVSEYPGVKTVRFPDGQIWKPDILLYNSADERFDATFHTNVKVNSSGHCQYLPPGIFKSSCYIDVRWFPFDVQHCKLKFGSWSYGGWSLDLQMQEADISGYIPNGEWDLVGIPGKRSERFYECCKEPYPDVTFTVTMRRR
# Sequence (P23415 248-457 partner): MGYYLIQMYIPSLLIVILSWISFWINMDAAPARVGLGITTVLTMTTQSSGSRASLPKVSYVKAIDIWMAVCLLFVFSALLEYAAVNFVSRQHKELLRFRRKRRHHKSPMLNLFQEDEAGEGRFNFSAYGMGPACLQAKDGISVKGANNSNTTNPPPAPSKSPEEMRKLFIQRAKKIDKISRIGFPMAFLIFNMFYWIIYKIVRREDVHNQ
# Assay Comment: Membrane potential assay screen, mutant α7–GlyR chimeric channels
# Assay type: cell-based
# Conditions Used: EC50 at α7 GlyR L131K, sheet 1d; single determinations
pEC50: −log10 of the molar value.

>  <Compound>
COC(=O)[C@H]1[C@@H](OC(=O)c2ccccc2)C[C@@H]2CC[C@H]1N2C [cocaine]

>  <Subject Of Test>
α7–GlyR mutant chimeric channels (Homo sapiens, UniProt P36544, L131K)

>  <pEC50>
< 4.52

$$$$

---

# Subject Of Test: α7–5HT3 mutant chimeric channels (Homo sapiens, UniProt P36544, Q139M)
# Sequence (P36544 23-224 Q139M): as the sequence (P36544 23-224 L141G/G175K/Y210F/Y217F) above, with Q117M, G119L, K153G, F188Y, F195Y counted along it
# Sequence (P23979 242-489, further chain): as the sequence (P23979 242-489) above
# Assay Comment: cell-based
# Format: cell-based, human α7 nAChR LBD, mouse 5HT3 IPD
# Conditions Used: read-out: EC50 at a7 5HT3 Q139M, Avg; sheet 1d; Avg

>  <Molecule>
COC(=O)[C@H]1[C@@H](OC(=O)c2ccccc2)C[C@@H]2CC[C@H]1N2C [cocaine]

>  <Subject Of Test>
α7–5HT3 mutant chimeric channels (Homo sapiens, UniProt P36544, Q139M)

>  <EC50>
> 30 µM

$$$$

---

# Subject Of Test: α7–5HT3 mutant chimeric channels (Homo sapiens, UniProt P36544, Q139V)
# Sequence (P36544 23-224 Q139V, one chain of several): as the sequence (P36544 23-224 L141G, one chain of several) above, with Q117V, G119L counted along it
# Assay Comment: cell-based
# Type: cell-based, human α7 nAChR LBD, mouse 5HT3 IPD
Measured Property: EC50

>  <Compound>
COC(=O)[C@H]1[C@@H](OC(=O)c2ccccc2)C[C@@H]2CC[C@H]1N2C [cocaine]

>  <Measured Property>
EC50

>  <Measured Result>
> 30 µM

$$$$

---

# Subject Of Test: coca-5HT3 (α7(L141G,G175K,Y210F,Y217F)–5HT3) (Homo sapiens, UniProt P36544, G175K/L141G/Y210F/Y217F)
# Assay Comment: Membrane potential assay, coca-5HT3 in HEK293
# Conditions Used: coca-5HT3; conc 111.111 uM; ED Fig 3a
Please assign a class to every record based on measured Response, with ranges low interval = under 0.05, middle interval = from 0.05 up to 0.07, high interval = 0.07 and over

>  <Molecule>
NCCCC(=O)O

>  <Class Label>
low interval

$$$$
>  <Molecule>
NCC(=O)O

>  <Class Label>
middle interval

$$$$
>  <Molecule>
NCCc1ccc(O)c(O)c1

>  <Class Label>
middle interval

$$$$
>  <Molecule>
N[C@H](CO)C(=O)O

>  <Class Label>
high interval

$$$$
>  <Molecule>
NCCc1c[nH]c2ccc(O)cc12

>  <Class Label>
high interval

$$$$
>  <Molecule>
CCCCC/C=C\C/C=C\C/C=C\C/C=C\CCCC(=O)NCCO [Anandamide]

>  <Class Label>
high interval

$$$$
>  <Molecule>
N[C@@H](CCC(=O)O)C(=O)O [Glutmate]

>  <Class Label>
low interval

$$$$
>  <Molecule>
NC[C@H](O)c1ccc(O)c(O)c1 [Norepinephrine]

>  <Class Label>
middle interval

$$$$
>  <Molecule>
NCCc1c[nH]cn1

>  <Class Label>
middle interval

$$$$
>  <Molecule>
CNC[C@H](O)c1ccc(O)c(O)c1 [Epinephrine]

>  <Class Label>
high interval

$$$$

---

# Subject Of Test: coca-5HT3 (α7(L141G,G175K,Y210F,Y217F)–5HT3) (Homo sapiens, UniProt P36544, G175K/L141G/Y210F/Y217F)
# Assay Comment: Membrane potential assay, coca-5HT3 in HEK293
# Conditions Used: coca-5HT3; conc 0.457247 uM; ED Fig 3a
Measured Property: Response

>  <Compound>
CNC[C@H](O)c1ccc(O)c(O)c1 [Epinephrine]

>  <Measured Property>
Response

>  <Measured Result>
0.136

$$$$
>  <Compound>
NCCc1ccc(O)c(O)c1

>  <Measured Property>
Response

>  <Measured Result>
0.119

$$$$
>  <Compound>
NCC(=O)O

>  <Measured Property>
Response

>  <Measured Result>
0.223

$$$$
>  <Compound>
NC[C@H](O)c1ccc(O)c(O)c1 [Norepinephrine]

>  <Measured Property>
Response

>  <Measured Result>
0.151

$$$$
>  <Compound>
CCCCC/C=C\C/C=C\C/C=C\C/C=C\CCCC(=O)NCCO [Anandamide]

>  <Measured Property>
Response

>  <Measured Result>
0.053

$$$$
>  <Compound>
Nc1ncnc2c1ncn2[C@@H]1O[C@H](CO)[C@@H](O)[C@H]1O

>  <Measured Property>
Response

>  <Measured Result>
0.126

$$$$
>  <Compound>
N[C@@H](CC(=O)O)C(=O)O [Aspartate]

>  <Measured Property>
Response

>  <Measured Result>
0.065

$$$$
>  <Compound>
COC(=O)[C@H]1[C@@H](OC(=O)c2ccccc2)C[C@@H]2CC[C@H]1N2C

>  <Measured Property>
Response

>  <Measured Result>
0.103

$$$$
>  <Compound>
NCCCC(=O)O

>  <Measured Property>
Response

>  <Measured Result>
0.157

$$$$
>  <Compound>
N[C@H](CO)C(=O)O

>  <Measured Property>
Response

>  <Measured Result>
0.104

$$$$
>  <Compound>
N[C@@H](CCC(=O)O)C(=O)O [Glutmate]

>  <Measured Property>
Response

>  <Measured Result>
0.109

$$$$
>  <Compound>
NCCc1c[nH]cn1

>  <Measured Property>
Response

>  <Measured Result>
0.136

$$$$
